These entries and their values trace back to ChEMBL document CHEMBL3352075.

- system: Hepatocyte growth factor receptor (Homo sapiens)
- Sequence (P08581 whole entry): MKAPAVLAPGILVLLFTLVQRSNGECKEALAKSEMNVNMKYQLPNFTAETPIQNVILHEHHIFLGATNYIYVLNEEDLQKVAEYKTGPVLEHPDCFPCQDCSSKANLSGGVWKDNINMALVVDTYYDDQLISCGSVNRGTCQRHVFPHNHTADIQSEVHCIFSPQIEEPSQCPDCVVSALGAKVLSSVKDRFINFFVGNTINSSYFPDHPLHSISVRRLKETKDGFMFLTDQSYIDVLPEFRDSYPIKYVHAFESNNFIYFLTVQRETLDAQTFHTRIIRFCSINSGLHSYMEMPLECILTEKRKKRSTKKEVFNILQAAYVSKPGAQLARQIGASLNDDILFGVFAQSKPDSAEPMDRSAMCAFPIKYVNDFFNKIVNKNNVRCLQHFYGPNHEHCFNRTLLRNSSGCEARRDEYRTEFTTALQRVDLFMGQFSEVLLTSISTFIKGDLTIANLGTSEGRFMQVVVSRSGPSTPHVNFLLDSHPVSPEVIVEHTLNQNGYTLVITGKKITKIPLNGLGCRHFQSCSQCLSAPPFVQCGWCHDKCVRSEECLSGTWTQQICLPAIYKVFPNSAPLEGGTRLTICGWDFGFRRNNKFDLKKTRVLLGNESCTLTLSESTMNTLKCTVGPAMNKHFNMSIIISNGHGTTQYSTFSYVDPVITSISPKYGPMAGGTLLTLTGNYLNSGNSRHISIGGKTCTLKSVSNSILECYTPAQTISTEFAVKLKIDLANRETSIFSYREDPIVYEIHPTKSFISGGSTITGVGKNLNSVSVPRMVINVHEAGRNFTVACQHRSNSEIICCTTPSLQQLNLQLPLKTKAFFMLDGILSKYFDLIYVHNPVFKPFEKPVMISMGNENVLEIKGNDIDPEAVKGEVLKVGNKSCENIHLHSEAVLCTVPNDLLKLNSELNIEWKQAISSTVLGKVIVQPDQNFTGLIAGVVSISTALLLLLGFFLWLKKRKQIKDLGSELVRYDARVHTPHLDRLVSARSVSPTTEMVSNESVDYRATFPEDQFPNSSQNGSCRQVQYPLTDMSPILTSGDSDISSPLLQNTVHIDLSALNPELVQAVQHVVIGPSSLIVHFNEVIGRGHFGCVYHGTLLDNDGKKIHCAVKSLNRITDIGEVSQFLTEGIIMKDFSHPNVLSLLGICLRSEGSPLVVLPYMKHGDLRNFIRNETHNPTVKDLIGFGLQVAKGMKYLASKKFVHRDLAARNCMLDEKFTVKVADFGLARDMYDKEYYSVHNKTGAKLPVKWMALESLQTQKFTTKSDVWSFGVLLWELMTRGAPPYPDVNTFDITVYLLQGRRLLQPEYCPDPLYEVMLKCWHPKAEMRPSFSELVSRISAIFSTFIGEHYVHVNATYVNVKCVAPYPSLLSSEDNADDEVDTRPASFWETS
- assayDetails: Inhibition of recombinant c-Met (unknown origin) using poly (Glu,Tyr)4:1 substrate incubated for 60 mins by ELISA method
pIC50: −log10 of the molar value.
observationType: pIC50

# compound, reading
measured = [
    ("O=C(Nc1ccc(F)cc1)C1(C(=O)Nc2ccc(Oc3ccnc4c3nc3n4CCCC3)c(F)c2)CC1", 6.59),
    ("O=C(Nc1ccc(F)cc1)C1(C(=O)Nc2ccc(Oc3ccnc4[nH]c(=O)[nH]c34)c(F)c2)CC1", 6.68),
]
